We begin with a simple list: items and their reported Ki.
measured on: Aβ42 fibrillar aggregates (Homo sapiens, UniProt P05067)
Sequence (P05067 672-713 limits assumed): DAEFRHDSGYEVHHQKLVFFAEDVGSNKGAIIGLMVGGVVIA
assay text: Competitive binding assay using Aβ42 fibrillar aggregates
assay context: homologous competition, Re complex vs corresponding 99mTc complex, 50 nM Aβ42 fibrillar aggregates, 3 h room temperature

compound	readout kind	measurement
Cn1c(-[c-]2cccc2)nc2ccccc21.[99Tc+].[C-]#[O+].[C-]#[O+].[C-]#[O+] [^99mTc-4]	Ki	5.74 nM

Moving on to another compound below.
The value of Ki measured for the compound [99Tc+].[C-]#[O+].[C-]#[O+].[C-]#[O+].c1ccc2[nH]c(-[c-]3cccc3)nc2c1 [^99mTc-3] turned out to be 7.04 nM
